test: Aqueous solubility (laser nephelometry); assay type: physicochemical; conditions: aqueous assay buffer with 1% DMSO, simulated gastric fluid, kinetic from dmso stock; pH 2, 1% DMSO, 30 minute incubation at 25° C.; read-out: Solubility pH 2
Measured endpoint: solubility at 30 min

Report solubility at 30 min, nothing else, for this compound: CNC(=O)c1c2cc(C3CC3)c(N(CCO)S(C)(=O)=O)cc2nn1-c1ccc(C)cn1 [Compound 2] 50 to 100 µg/mL

Report solubility at 30 min, nothing else, for this compound: CNC(=O)c1c2cc(C3CC3)c(N(CC(F)F)S(C)(=O)=O)cc2nn1-c1ccc(C)cn1 [Compound 3] 50 to 100 µg/mL

Report solubility at 30 min, nothing else, for this compound: CCN(c1cc2nn(-c3ccc(C)nc3)c(C(=O)NC)c2cc1C1CC1)S(C)(=O)=O [Compound A, reference compound] < 1.6 µg/mL

Report solubility at 30 min, nothing else, for this compound: CNC(=O)c1c2cc(C3CC3)c(N(CCC3CN(C(C)=O)C3)S(C)(=O)=O)cc2nn1-c1ccc(C)cn1 [Compound 17] 50 to 100 µg/mL

Report solubility at 30 min, nothing else, for this compound: CCN(c1cc2nn(-c3ccc(C)cn3)c(C(=O)NC)c2cc1C1CC1)S(C)(=O)=O [Compound 5] > 100 µg/mL

Report solubility at 30 min, nothing else, for this compound: CNC(=O)c1c2cc(C3CC3)c(N(CCC3(C)COC3)S(C)(=O)=O)cc2nn1-c1ccc(C)cn1 [Compound 11] 50 to 100 µg/mL
